Test system: FLK-1 receptor
TEST NAME: FLK-1 Assay (cellular/catalytic ELISA, VEGF-stimulated phosphotyrosine)
Type: cell-based
Parameters: concentration or dose not given beside the values

{"COMPOUND": "Cc1c(Br)cc(Br)c2c1C(=Cc1ccc(O)c(O)c1O)C(=O)N2 [10723/H02]", "Flk Kinase % Inhibition (P.110) / %": 9.0}
{"COMPOUND": "Cc1c(Br)cc(Br)c2c1C(=Cc1cccs1)C(=O)N2 [10717/H03]", "Flk Kinase % Inhibition (P.110) / %": 8.6}
{"COMPOUND": "N#Cc1ccccc1C=C1C(=O)Nc2c(Br)cc(Br)cc21 [10735/A07]", "Flk Kinase % Inhibition (P.110) / %": "−1.3"}
{"COMPOUND": "Cc1[nH]c(C=C2C(=O)Nc3c(Br)cc(Br)c(C)c32)c(Br)c1Br [10717/H11]", "Flk Kinase % Inhibition (P.110) / %": "−0.4"}
{"COMPOUND": "Cc1c(Br)cc(Br)c2c1C(=CC(c1cccs1)C(F)(F)F)C(=O)N2 (stereo not shown) [10732/H02]", "Flk Kinase % Inhibition (P.110) / %": 9.1}
{"COMPOUND": "O=C1Nc2ccc(I)cc2C1=Cc1cccc(F)c1O [10734/B08]", "Flk Kinase % Inhibition (P.110) / %": "−0.5"}
{"COMPOUND": "O=C1Nc2ccc(I)cc2C1=Cc1ccccc1Cl [10736/B11]", "Flk Kinase % Inhibition (P.110) / %": 7.3}
{"COMPOUND": "COc1cccc(OC)c1C=C1C(=O)Nc2c(Br)cc(Br)c(C)c21 [10728/H03]", "Flk Kinase % Inhibition (P.110) / %": "−2.1"}
{"COMPOUND": "O=C1Nc2ccc(CCCl)cc2C1=Cc1ccccc1C(F)(F)F [10736/G03]", "Flk Kinase % Inhibition (P.110) / %": 4.5}
{"COMPOUND": "Cc1c(Br)cc(Br)c2c1C(=Cc1ccc(F)cc1)C(=O)N2 [10717/H05]", "Flk Kinase % Inhibition (P.110) / %": 5.0}

----------
We begin with a simple list: items and their reported Biochem EGFR % Inhibition (P.167).
STUDY SYSTEM: EGFR (Homo sapiens)
Construct: endogenous in cells; host or cells: A431 cells (lysate, captured with SUMO1 anti-EGFR antibody)
Sequence (P00533 25-1210): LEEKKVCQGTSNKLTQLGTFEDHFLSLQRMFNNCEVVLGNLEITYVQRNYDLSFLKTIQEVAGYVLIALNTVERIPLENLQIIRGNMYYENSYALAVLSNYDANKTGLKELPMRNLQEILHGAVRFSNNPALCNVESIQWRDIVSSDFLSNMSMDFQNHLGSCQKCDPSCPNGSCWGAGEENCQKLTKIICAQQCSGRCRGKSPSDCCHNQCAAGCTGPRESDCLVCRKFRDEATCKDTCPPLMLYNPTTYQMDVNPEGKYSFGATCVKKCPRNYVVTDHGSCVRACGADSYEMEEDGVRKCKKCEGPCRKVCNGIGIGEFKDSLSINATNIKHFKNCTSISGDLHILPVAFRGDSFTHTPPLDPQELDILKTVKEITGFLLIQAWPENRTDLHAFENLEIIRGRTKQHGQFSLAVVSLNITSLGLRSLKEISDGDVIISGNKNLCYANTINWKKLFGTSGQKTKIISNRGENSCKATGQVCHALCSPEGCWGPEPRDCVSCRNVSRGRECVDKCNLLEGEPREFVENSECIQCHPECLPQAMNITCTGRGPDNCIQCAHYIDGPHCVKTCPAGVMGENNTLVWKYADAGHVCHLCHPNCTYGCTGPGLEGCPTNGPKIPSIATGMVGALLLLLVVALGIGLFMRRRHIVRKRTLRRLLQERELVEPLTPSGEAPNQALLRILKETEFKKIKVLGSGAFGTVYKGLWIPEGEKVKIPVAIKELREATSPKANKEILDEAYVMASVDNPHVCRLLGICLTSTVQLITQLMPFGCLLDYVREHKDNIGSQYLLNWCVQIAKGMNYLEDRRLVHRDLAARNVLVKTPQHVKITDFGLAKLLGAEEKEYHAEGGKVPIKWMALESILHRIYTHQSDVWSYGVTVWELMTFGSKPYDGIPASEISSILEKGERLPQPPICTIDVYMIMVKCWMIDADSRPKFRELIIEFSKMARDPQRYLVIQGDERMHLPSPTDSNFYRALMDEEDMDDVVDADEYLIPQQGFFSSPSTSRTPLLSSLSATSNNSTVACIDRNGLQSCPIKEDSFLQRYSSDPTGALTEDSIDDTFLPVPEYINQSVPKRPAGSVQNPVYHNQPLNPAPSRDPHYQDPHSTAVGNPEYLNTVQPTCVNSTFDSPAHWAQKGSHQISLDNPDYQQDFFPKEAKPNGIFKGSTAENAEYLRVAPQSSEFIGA
TEST NAME: Biochemical EGFR Assay
Parameters: concentration or dose not given beside the values

{"COMPOUND STRUCTURE": "Cc1cccc(C=C2C(=O)Nc3ccc(CCCl)cc32)c1", "Biochem EGFR % Inhibition (P.167) [%]": "−35.0"}
{"COMPOUND STRUCTURE": "Cc1c(Br)ccc2c1C(=Cc1cccc3ccccc13)C(=O)N2", "Biochem EGFR % Inhibition (P.167) [%]": "−22.1"}
{"COMPOUND STRUCTURE": "Cc1c(Br)cc(Br)c2c1C(=Cc1ccccn1)C(=O)N2", "Biochem EGFR % Inhibition (P.167) [%]": 30.0}
{"COMPOUND STRUCTURE": "CNS(=O)(=O)c1ccc2c(c1)C(=Cc1ccc(C(C)(C)C)cc1)C(=O)N2", "Biochem EGFR % Inhibition (P.167) [%]": "−4.4"}
{"COMPOUND STRUCTURE": "Cc1c(Br)cc(Br)c2c1C(=Cc1cc(I)c(OCc3ccccc3)c(C(C)(C)C)c1)C(=O)N2", "Biochem EGFR % Inhibition (P.167) [%]": 3.2}

----------
STUDY SYSTEM: Met receptor (EGFR/Met chimeric cells, EMR) (Homo sapiens, UniProt P08581)
Construct: expressed in transfected cells; the other entry of the earlier key: EGFR (P00533, Epidermal growth factor receptor)
Sequence (P08581 with tags, fused parts or gaps): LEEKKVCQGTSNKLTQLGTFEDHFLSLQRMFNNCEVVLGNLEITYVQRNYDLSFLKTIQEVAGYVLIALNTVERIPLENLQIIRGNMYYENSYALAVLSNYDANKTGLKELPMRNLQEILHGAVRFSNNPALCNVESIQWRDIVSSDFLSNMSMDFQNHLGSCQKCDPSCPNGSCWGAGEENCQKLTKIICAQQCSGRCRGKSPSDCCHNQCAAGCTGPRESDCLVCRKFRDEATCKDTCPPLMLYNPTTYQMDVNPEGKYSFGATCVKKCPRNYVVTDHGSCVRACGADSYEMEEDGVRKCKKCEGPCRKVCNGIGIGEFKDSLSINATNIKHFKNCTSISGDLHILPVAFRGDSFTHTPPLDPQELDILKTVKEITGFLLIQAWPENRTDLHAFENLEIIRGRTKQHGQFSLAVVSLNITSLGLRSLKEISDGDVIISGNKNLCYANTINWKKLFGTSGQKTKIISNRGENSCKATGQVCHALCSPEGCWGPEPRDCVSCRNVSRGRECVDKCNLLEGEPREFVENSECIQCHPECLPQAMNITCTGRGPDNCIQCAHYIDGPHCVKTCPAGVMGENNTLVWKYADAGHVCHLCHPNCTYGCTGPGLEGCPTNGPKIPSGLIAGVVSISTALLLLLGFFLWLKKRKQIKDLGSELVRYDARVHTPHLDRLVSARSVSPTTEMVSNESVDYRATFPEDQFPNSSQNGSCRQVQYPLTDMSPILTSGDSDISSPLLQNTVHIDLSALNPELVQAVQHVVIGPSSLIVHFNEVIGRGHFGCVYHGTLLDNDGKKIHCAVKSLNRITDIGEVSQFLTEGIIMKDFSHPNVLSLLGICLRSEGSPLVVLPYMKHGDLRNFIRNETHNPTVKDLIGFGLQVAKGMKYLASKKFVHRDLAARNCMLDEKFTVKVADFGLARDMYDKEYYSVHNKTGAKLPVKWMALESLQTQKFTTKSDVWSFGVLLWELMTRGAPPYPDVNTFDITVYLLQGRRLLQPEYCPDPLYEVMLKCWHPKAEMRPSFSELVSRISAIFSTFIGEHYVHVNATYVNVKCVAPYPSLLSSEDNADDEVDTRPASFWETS
TEST NAME: Met Autophosphorylation Assay
Type: biochemical
ENDPOINT LABEL: Met Kinase % Inhibition (P.130) (%)

{"COMPOUND STRUCTURE": "O=C1Nc2ccc(I)cc2C1=Cc1ccc([N+](=O)[O-])cc1", "ENDPOINT LABEL": "Met Kinase % Inhibition (P.130)", "UNIT NAME": "%", "TEST VALUE": 91.2}
{"COMPOUND STRUCTURE": "O=C1Nc2ccc(I)cc2C1=Cc1ccccc1Cl", "ENDPOINT LABEL": "Met Kinase % Inhibition (P.130)", "UNIT NAME": "%", "TEST VALUE": 47.0}
{"COMPOUND STRUCTURE": "COc1cc(O)c(C=C2C(=O)Nc3c(Br)cc(Br)c(C)c32)c(OC)c1", "ENDPOINT LABEL": "Met Kinase % Inhibition (P.130)", "UNIT NAME": "%", "TEST VALUE": 65.8}
{"COMPOUND STRUCTURE": "O=C1Nc2c(Br)cc(Br)cc2C1=Cc1cccc(Cl)c1", "ENDPOINT LABEL": "Met Kinase % Inhibition (P.130)", "UNIT NAME": "%", "TEST VALUE": 69.7}
{"COMPOUND STRUCTURE": "Cc1c(Br)cc(Br)c2c1C(=Cc1ccc(O)cc1)C(=O)N2", "ENDPOINT LABEL": "Met Kinase % Inhibition (P.130)", "UNIT NAME": "%", "TEST VALUE": 22.9}
{"COMPOUND STRUCTURE": "COc1c(C)cc(C=C2C(=O)Nc3c(Br)cc(Br)c(C)c32)cc1C", "ENDPOINT LABEL": "Met Kinase % Inhibition (P.130)", "UNIT NAME": "%", "TEST VALUE": 18.4}
{"COMPOUND STRUCTURE": "Cc1[nH]c(C=C2C(=O)Nc3c(Br)cc(Br)c(C)c32)c(Br)c1Br", "ENDPOINT LABEL": "Met Kinase % Inhibition (P.130)", "UNIT NAME": "%", "TEST VALUE": 58.2}
{"COMPOUND STRUCTURE": "Cc1c(Br)cc(Br)c2c1C(=Cc1cc(Cl)c(O)c(C(C)(C)C)c1)C(=O)N2", "ENDPOINT LABEL": "Met Kinase % Inhibition (P.130)", "UNIT NAME": "%", "TEST VALUE": 72.6}
{"COMPOUND STRUCTURE": "O=C1Nc2ccc(S(=O)(=O)N3CCOCC3)cc2C1=Cc1ccc(F)c(F)c1", "ENDPOINT LABEL": "Met Kinase % Inhibition (P.130)", "UNIT NAME": "%", "TEST VALUE": 36.1}
{"COMPOUND STRUCTURE": "Cc1cccc(C=C2C(=O)Nc3ccc(S(=O)(=O)N4CCOCC4)cc32)c1", "ENDPOINT LABEL": "Met Kinase % Inhibition (P.130)", "UNIT NAME": "%", "TEST VALUE": 45.2}
{"COMPOUND STRUCTURE": "Cc1ccccc1C=C1C(=O)Nc2ccc(S(=O)(=O)N3CCOCC3)cc21", "ENDPOINT LABEL": "Met Kinase % Inhibition (P.130)", "UNIT NAME": "%", "TEST VALUE": 31.2}
{"COMPOUND STRUCTURE": "O=C1Nc2c(Br)cc(Br)cc2C1=Cc1ccccc1F", "ENDPOINT LABEL": "Met Kinase % Inhibition (P.130)", "UNIT NAME": "%", "TEST VALUE": 58.7}
{"COMPOUND STRUCTURE": "CCOc1cccc(C=C2C(=O)Nc3c(Br)cc(Br)c(C)c32)c1O", "ENDPOINT LABEL": "Met Kinase % Inhibition (P.130)", "UNIT NAME": "%", "TEST VALUE": 48.3}
{"COMPOUND STRUCTURE": "O=C1Nc2ccc(CCCl)cc2C1=Cc1ccc(Cl)cc1Cl", "ENDPOINT LABEL": "Met Kinase % Inhibition (P.130)", "UNIT NAME": "%", "TEST VALUE": 37.8}
{"COMPOUND STRUCTURE": "O=C1Nc2ccc(I)cc2C1=Cc1cc(C(F)(F)F)cc(C(F)(F)F)c1", "ENDPOINT LABEL": "Met Kinase % Inhibition (P.130)", "UNIT NAME": "%", "TEST VALUE": 82.7}
{"COMPOUND STRUCTURE": "CCOc1cccc(C=C2C(=O)Nc3ccc(CCCl)cc32)c1O", "ENDPOINT LABEL": "Met Kinase % Inhibition (P.130)", "UNIT NAME": "%", "TEST VALUE": 63.6}
{"COMPOUND STRUCTURE": "Cc1c(Br)cc(Br)c2c1C(=Cc1ccncc1)C(=O)N2", "ENDPOINT LABEL": "Met Kinase % Inhibition (P.130)", "UNIT NAME": "%", "TEST VALUE": 45.1}
{"COMPOUND STRUCTURE": "CCN(CC)c1ccc(C=C2C(=O)Nc3ccc(S(=O)(=O)NC)cc32)c(O)c1", "ENDPOINT LABEL": "Met Kinase % Inhibition (P.130)", "UNIT NAME": "%", "TEST VALUE": 55.0}
{"COMPOUND STRUCTURE": "N#Cc1ccccc1C=C1C(=O)Nc2c(Br)cc(Br)cc21", "ENDPOINT LABEL": "Met Kinase % Inhibition (P.130)", "UNIT NAME": "%", "TEST VALUE": 61.9}
